meta.source: PubChem BioAssay

Target desc: NADPH oxidase 2 (Homo sapiens) (UniProt P04839)
Sequence (P04839 whole entry, looked up): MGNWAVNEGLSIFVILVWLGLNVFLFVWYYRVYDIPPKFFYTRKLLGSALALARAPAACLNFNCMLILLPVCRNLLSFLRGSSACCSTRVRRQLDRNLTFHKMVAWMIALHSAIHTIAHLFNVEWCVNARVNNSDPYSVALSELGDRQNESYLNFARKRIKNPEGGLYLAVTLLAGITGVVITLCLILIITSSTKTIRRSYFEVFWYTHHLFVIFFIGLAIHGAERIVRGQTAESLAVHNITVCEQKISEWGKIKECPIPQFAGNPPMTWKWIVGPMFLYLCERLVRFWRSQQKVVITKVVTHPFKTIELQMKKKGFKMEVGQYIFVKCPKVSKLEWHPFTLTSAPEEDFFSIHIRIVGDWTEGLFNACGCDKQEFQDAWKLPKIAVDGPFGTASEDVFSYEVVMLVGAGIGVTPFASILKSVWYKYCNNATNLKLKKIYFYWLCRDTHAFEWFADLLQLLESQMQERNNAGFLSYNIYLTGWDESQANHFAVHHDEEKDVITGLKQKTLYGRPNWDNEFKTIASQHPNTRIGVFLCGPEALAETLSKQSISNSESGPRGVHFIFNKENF
Experiment summary: NOX2-dependent H2O2 signal modulators, primary screen, NOX inhibitor project, cell-based, HEK293-NOX2, PMA-stimulated, Amplex Red fluorescence (AID 1159); further: test concentration not given here
Run conditions: 45 min, higher = more signal, called active from +8 up or from −8 down
Returns one of y or n; y when z-score is >= -0.2.

These recorded examples may help you get a feel for the data.
COc1cccc(OC)c1C(=O)O[C@H]1[C@@H]2OC(=O)[C@H](Cc3cccc(Br)c3)C/C=C/C[C@@H](Cc3cccc(Br)c3)C(=O)O[C@H]2[C@@H](OC)O[C@@H]1CO    n
COC(=O)[C@@]1(Cc2ccccc2)[C@@H]2[C@@H](CC(=O)[C@H]2CC(=O)C(=O)N(C)C)CN1C(=O)c1ccccc1    y
CC(C)CNC(=O)[C@@H]1c2ccccc2C(=O)N(C2Cc3ccccc3C2)[C@H]1c1ccc(CO)cc1    y
COC(=O)c1ccc([C@H](NC(=O)c2ccccc2)[C@]2(C)C[C@H]2C2CCCCC2)cc1    y
COCCOC(=O)N1C(=O)[C@@]2(c3cc(C#CC4(O)CCCCCC4)ccc31)[C@H](C(=O)NC[C@H](O)c1ccccc1)[C@H]1C(=O)O[C@H](c3ccccc3)[C@H](c3ccccc3)N1[C@@H]2c1ccc(O)cc1    y
[N-]=[N+]=NCc1ccccc1C[C@]1(C(=O)NCc2ccccc2)N=C(c2ccc(OCCCO)cc2)O[C@H]1c1ccccc1CN=[N+]=[N-]    n

Challenge: Hi, just wondering whether COc1ccc(CC[C@H](O)c2cccc(OCC(=O)OC(C)(C)C)c2)cc1 shows z-score of -0.2 or higher.
Response given: n

Challenge: Is z-score for COCCOC(=O)N1C(=O)[C@@]2(c3cc(C#CCC(C(=O)OC)C(=O)OC)ccc31)[C@H](C(=O)N1CCc3cc(OC)c(OC)cc3C1)[C@H]1C(=O)O[C@H](c3ccccc3)[C@H](c3ccccc3)N1[C@@H]2c1ccc(O)cc1 at or above -0.2?
Response given: y

Challenge: Quick check: does CC(C)CNC(=O)[C@@H]1c2ccccc2C(=O)N(C(C)C)[C@H]1c1ccc(CO)cc1 have z-score greater than or equal to -0.2?
Response given: n

Challenge: Check the entry C=CCC(OC(C)=O)[C@@H]1[C@@H](N(Cc2ccc(-c3cccc(C(F)(F)F)c3)o2)C(=O)Cc2ccc(OC)cc2)c2cc(OCCCO)ccc2N1C(=O)c1ccc2ccccc2n1 (some centres not stated) : does z-score equal or exceed -0.2?
Response given: n

Challenge: In plain terms: is recorded z-score at least -0.2 for C=C(COC)/C(=C/C[C@H](OC(=O)c1ccncc1)c1cccc(OCCO)c1)c1cnc2ccccc2c1 ?
Response given: y

Challenge: Textbook exercise: given the entry COCCOC(=O)N1C(=O)[C@@]2(c3cc(C#CCC(C(=O)OC)C(=O)OC)ccc31)[C@H](C(N)=O)[C@H]1C(=O)O[C@H](c3ccccc3)[C@H](c3ccccc3)N1[C@@H]2c1ccc(OCCO)cc1 , state whether its z-score is greater than or equal to -0.2.
Response given: y

Challenge: Could you tell me if the measured z-score of CC(C)(C)OC(=O)CC[C@]1(C(=O)N2CCOCC2)N=C(c2ccc(OCCCO)cc2)O[C@H]1c1ccccc1CN=[N+]=[N-] reaches -0.2 or more?
Response given: n

Challenge: Please indicate if the recorded z-score for CCCCCCCCCCC(O)C1C=CC2C(=O)N(C)C(=O)C2N1N1CCCCC1 (configuration not stated) meets or exceeds -0.2.
Response given: y

Challenge: Quick check: does CC=CC(O)C1C=CC2C(=O)N(C)C(=O)C2N1NC(=O)OC(C)(C)C (configuration not stated) have z-score greater than or equal to -0.2?
Response given: n

----------
Experiment summary: small-molecule microarray binders of probe aLefty2, primary screen, biochemical, biotinylated probe, 635/667 nm fluorescence (AID 1094);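 further: score merges spot fluorescence near 667 nm with spot signal-to-noise ratio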
Run conditions: higher = more signal
Parameter: composite z-score
Answers are plain numbers.

C=CCC(OC(C)=O)[C@@H]1[C@@H](N(Cc2ccc(-c3ccccc3)cc2)C(=O)c2cccc3ccccc23)c2cc(OCCCO)ccc2N1C(=O)c1ccc2ccccc2c1 (some centres undefined)    0.0802
COCCOC(=O)N1C(=O)[C@@]2(c3cc(C#CC4=CCCCC4)ccc31)[C@H](C(=O)N1CCN(c3ncccn3)CC1)[C@H]1C(=O)O[C@H](c3ccccc3)[C@H](c3ccccc3)N1[C@@H]2c1ccccc1OCCO    -0.0687
O=c1cccc(-c2ccccc2C(F)(F)F)o1    0.659

Provide each entry's composite z-score from the list below.
1. CC(C)C[C@@H]1NC(=O)[C@H]2C[C@@H](C(=O)NCCCCCNC(=O)CS)[C@@H](c3ccc(O)cc3)N2C1=O
2. CCOC(=O)C1=CC[C@@H](c2ccccc2Cl)N(S(=O)(=O)c2ccc(C)cc2)[C@H]1c1cccc(OC)c1
3. O=C1N(CCS(=O)(=O)c2ccccc2)c2ccccc2[C@@H]2OC(c3ccc(OCCCO)cc3)=N[C@]12CCS(=O)(=O)c1ccccc1
4. C#CCN(C/C=C/c1ccccc1)[C@H](CO[Si](C)(C)C(C)(C)C)c1ccccc1
5. CCN(CC)c1ccc(N2CC=CC34O[C@@H]5C=CCOC(=O)[C@@H]5[C@H]3C(=O)N(CCCO)[C@@H]4C2=O)cc1 (some centres undefined)
6. O=C1NC(=O)C2C1C=CC(C(O)c1cccc(O)c1)N2Nc1ccc(Cl)cc1Cl (centres undefined)
7. COCCOC(=O)N1C(=O)[C@@]2(c3cc(C#Cc4ccc(OC)cc4)ccc31)[C@H](c1ccc(OCCO)cc1)N1[C@H](c3ccccc3)[C@H](c3ccccc3)OC(=O)[C@H]1[C@@H]2C(=O)N1CCCCCCC1
8. C=CCC(OC(C)=O)[C@@H]1[C@@H](N(Cc2ccc(-c3ccccc3)cc2)C(=O)c2ccc(C)cc2)c2cc(OCCCO)ccc2N1C(=O)c1ccc2ccccc2c1 (some centres undefined)

Response given:
1. -0.077
2. -0.186
3. 0.471
4. -0.264
5. -0.139
6. 0.0893
7. 1.45
8. -0.173

Dear colleague, could you please provide composite z-score for the compounds listed below?
1. C=CCC(OC(C)=O)[C@@H]1[C@@H](N(Cc2cc3ccccc3o2)C(=O)c2ccc(-c3ccccc3)cc2)c2cc(OCCCO)ccc2N1C(=O)c1ccc2ccccc2n1 (some centres undefined)
2. C=CC[C@]1(C(=O)NCCCOC)N=C(c2ccc(OCCCO)cc2)O[C@H]1c1ccccc1
3. COC(=O)[C@@]1(CCS(=O)(=O)c2ccccc2)N=C(c2ccc(OCCCO)cc2)O[C@H]1c1ccccc1N=[N+]=[N-]

Response given:
1. -0.072
2. 0.037
3. -0.0341

----------
Experiment summary: MM1S myeloma cell viability, profiling panel, resazurin fluorescence, basal, 24 h, PK04 Diversity Set (AID 1174);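 further: MM1S multiple myeloma cell line; test concentration not given here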
Run conditions: higher = more signal, called active from +8 up or from −8 down
Parameter: z-score
Numbers only.

Worked set:
O=C1OCCC=C[C@H]2OC34C=CCN(CCN5CCOCC5)C(=O)[C@H]3N(CCCO)C(=O)[C@@H]4C12 (stereo partly drawn)    -0.525
O=C1c2ccccc2[C@](Cc2ccccc2I)(C(=O)O)[C@H](c2ccc(CO)cc2)N1Cc1ccccc1    -0.427
CCCCCN1CC=CC23O[C@@H]4C=CCOC(=O)[C@@H]4[C@H]2C(=O)N(CCCCCO)[C@@H]3C1=O (stereo partly drawn)    -0.295
COCCOC(=O)N1C(=O)[C@@]2(c3cc(C#CCC(C(=O)OC)C(=O)OC)ccc31)[C@H](c1ccc(OCCO)cc1)N1[C@H](c3ccccc3)[C@H](c3ccccc3)OC(=O)[C@H]1[C@@H]2C(=O)N1CCCCCCC1    0.13
N[C@@H](Cc1ccccc1)Cn1cc(C2(O)CCCCC2)nn1    -0.156

Please give z-score, item by item, for the list that follows.
1. O=C(NCC(F)(F)F)[C@@H]1c2ccccc2C(=O)N(CC23CC4CC(CC(C4)C2)C3)[C@H]1c1ccc(CO)cc1
2. CC#CCO[Si](C#CCCCCCC)(C(C)C)C(C)C
3. C[C@H]1C2[C@H](Cc3ccccc3)NC(=O)[C@]23C(=O)NCC(=O)N2CCC[C@H]2C(=O)NC/C=C\C/C=C/C3[C@@H]2O[C@]12C (stereo partly drawn)

Response given:
1: -1.04; 2: 0.486; 3: 0.741

----------
Experiment summary: P. aeruginosa biofilm formation inhibitors, primary screen, strain PAO1, LB-PBS medium, absorbance 600 nm (AID 1176); further: test concentration not given here
Run conditions: P. aeruginosa PAO1 growth/biofilm, A600, 12 h; higher = more signal
Please use criterion met whenever z-score is not below 1, and criterion not met whenever it is.

CCCCC=C[C@@H](NC(=O)c1ccc(C(F)(F)F)cc1)c1ccccc1    criterion not met

Challenge: Can COCCOC(=O)N1C(=O)[C@@]2(c3cc(C#CCC(C(=O)OC)C(=O)OC)ccc31)[C@H](C(=O)N1CCc3cc(OC)c(OC)cc3C1)[C@H]1C(=O)O[C@H](c3ccccc3)[C@H](c3ccccc3)N1[C@@H]2c1ccc(O)cc1 be said to have z-score at or above 1?
Response given: criterion not met

Challenge: Say whether C=CCN1C(=O)[C@]2(O[C@H](CCn3cc([C@H](O)c4ccccc4)nn3)[C@@H]([Si](C)(C)c3ccc(OC)cc3)[C@@H]2C)c2cc(N3C(=O)c4cccc5cccc3c45)ccc21 shows z-score of 1 or more.
Response given: criterion met

Challenge: z-score >= 1 for CCCCN1CC=CC23O[C@@H]4C=CCOC(=O)[C@@H]4[C@H]2C(=O)N(CCO)[C@@H]3C1=O (some centres not stated) ?
Response given: criterion not met
